Hello, the source for this data is PubChem BioAssay, in case you need it.

composite z-score values, listed per item
- test-system: Neurogenic locus notch homolog protein 3 (Homo sapiens) (UniProt Q9UM47)
- Sequence (Q9UM47 whole entry, looked up): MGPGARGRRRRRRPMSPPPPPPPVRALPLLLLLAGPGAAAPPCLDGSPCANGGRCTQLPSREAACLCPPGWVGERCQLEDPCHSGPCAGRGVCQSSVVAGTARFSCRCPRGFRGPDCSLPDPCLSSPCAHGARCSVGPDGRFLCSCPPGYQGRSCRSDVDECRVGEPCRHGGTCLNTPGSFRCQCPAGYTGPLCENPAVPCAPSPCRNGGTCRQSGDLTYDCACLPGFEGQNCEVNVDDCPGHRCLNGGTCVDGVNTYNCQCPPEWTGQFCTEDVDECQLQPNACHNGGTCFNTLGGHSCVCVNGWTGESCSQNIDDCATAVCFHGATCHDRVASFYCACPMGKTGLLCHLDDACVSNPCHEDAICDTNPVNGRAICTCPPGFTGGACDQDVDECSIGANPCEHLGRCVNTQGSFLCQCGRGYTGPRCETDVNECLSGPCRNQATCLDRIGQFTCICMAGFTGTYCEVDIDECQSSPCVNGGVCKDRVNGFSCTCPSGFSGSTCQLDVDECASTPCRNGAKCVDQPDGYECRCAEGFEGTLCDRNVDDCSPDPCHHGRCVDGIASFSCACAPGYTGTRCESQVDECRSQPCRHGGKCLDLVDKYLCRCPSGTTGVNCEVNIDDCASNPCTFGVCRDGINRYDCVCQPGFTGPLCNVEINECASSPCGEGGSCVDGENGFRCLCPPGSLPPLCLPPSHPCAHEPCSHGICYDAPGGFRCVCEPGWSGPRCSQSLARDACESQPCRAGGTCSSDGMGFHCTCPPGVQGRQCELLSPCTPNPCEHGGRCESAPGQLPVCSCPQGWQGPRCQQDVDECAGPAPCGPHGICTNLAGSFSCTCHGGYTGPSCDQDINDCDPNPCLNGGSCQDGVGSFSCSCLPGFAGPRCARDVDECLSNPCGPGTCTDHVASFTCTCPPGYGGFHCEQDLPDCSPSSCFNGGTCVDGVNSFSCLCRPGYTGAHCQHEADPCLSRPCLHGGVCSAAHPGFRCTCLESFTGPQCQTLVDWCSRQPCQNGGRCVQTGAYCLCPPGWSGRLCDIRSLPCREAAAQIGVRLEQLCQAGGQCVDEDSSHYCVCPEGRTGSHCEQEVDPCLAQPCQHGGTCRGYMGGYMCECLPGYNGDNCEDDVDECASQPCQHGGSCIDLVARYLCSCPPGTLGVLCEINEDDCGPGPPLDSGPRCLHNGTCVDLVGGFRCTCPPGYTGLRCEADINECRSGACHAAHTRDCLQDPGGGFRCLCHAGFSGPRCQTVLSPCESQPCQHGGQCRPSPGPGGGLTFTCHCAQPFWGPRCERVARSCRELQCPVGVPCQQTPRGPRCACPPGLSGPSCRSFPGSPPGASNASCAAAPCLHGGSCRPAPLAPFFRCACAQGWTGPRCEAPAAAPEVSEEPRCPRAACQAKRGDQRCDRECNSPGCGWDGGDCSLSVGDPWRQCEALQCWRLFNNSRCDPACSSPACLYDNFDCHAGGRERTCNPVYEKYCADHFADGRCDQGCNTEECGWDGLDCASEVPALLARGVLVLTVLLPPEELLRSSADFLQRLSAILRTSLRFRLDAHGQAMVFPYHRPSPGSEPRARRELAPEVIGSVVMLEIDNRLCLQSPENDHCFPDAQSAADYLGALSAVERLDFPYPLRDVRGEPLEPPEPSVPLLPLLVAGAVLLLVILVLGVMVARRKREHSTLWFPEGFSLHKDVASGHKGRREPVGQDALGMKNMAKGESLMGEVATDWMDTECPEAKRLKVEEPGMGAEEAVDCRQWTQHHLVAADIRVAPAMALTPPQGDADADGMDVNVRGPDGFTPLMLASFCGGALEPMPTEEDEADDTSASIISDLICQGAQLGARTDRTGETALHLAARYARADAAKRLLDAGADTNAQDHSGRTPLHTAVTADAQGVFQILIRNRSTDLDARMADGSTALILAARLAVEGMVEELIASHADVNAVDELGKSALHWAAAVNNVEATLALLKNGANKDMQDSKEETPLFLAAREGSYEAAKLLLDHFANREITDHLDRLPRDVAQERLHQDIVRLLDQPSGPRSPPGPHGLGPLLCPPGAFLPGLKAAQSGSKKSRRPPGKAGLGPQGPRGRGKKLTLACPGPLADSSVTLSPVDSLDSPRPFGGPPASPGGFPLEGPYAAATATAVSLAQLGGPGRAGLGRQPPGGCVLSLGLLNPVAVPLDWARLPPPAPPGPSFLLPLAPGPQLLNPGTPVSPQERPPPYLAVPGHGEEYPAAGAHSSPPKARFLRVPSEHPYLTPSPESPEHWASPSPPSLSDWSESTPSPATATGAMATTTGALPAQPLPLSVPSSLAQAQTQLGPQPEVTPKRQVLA
- measurement-notes: NOTCH3 binders on small-molecule microarray, primary screen, biochemical, 635/667 nm fluorescence (AID 1096)
- conditions-used: NOTCH3 binding, 635 nm fluorescence, higher = more signal

- compound: "COC(=O)[C@]1(CO)N=C(c2ccc(OCCCO)cc2)O[C@@H]1c1ccccc1CN=[N+]=[N-]"
  test-system: "Neurogenic locus notch homolog protein 3 (Homo sapiens) (UniProt Q9UM47)"
  composite z-score: -0.318
- compound: "COCCOC(=O)N1C(=O)[C@@]2(c3ccccc31)[C@H](C(N)=O)[C@H]1C(=O)O[C@H](c3ccccc3)[C@H](c3ccccc3)N1[C@@H]2c1ccc(OCCO)cc1"
  test-system: "Neurogenic locus notch homolog protein 3 (Homo sapiens) (UniProt Q9UM47)"
  composite z-score: 1.14
- compound: "C=CCC(OC(C)=O)[C@@H]1[C@@H](N(Cc2ccc(-c3cccc(C(F)(F)F)c3)o2)C(=O)Cc2ccc(F)cc2)c2cc(OCCCO)ccc2N1C(=O)c1ccc2ccccc2n1 (some centres undefined)"
  test-system: "Neurogenic locus notch homolog protein 3 (Homo sapiens) (UniProt Q9UM47)"
  composite z-score: -0.768
- compound: "CCOC(=O)C[C@H]1[C@H](OC(=O)c2ccc(-c3ccccc3)cc2)[C@@H](NC(=O)c2ccc3ccccc3c2)c2cc(OCCCO)ccc2N1C(=O)c1ccccc1"
  test-system: "Neurogenic locus notch homolog protein 3 (Homo sapiens) (UniProt Q9UM47)"
  composite z-score: 0.842
- compound: "COc1ccc([Si](C)(C)[C@@H]2[C@@H](CCO)O[C@]3(C(=O)N(Cc4ccccc4)c4ccc(N5C(=O)c6ccccc6Oc6ccccc65)cc43)[C@H]2C)cc1"
  test-system: "Neurogenic locus notch homolog protein 3 (Homo sapiens) (UniProt Q9UM47)"
  composite z-score: 0.057
- compound: "CC(C)C[C@H]1NC(=O)[C@@]23C(=O)N[C@@H](Cc4ccccc4)C2[C@H](C)[C@@]2(C)O[C@H]2C3/C=C/C/C=C\\CNC(=O)[C@@H]2CCCN2C1=O (some centres undefined)"
  test-system: "Neurogenic locus notch homolog protein 3 (Homo sapiens) (UniProt Q9UM47)"
  composite z-score: 0.696
- compound: "CC(C)c1ccc(NN2C(C(O)C(C)C)C=CC3C(=O)N(c4ccccc4)C(=O)C32)cc1 (centres undefined)"
  test-system: "Neurogenic locus notch homolog protein 3 (Homo sapiens) (UniProt Q9UM47)"
  composite z-score: 1.04
- compound: "COCCOC(=O)N1C(=O)[C@@]2(c3cc(C#CC4(O)CCCCCC4)ccc31)[C@H](c1ccccc1OCCO)N1[C@H](c3ccccc3)[C@H](c3ccccc3)OC(=O)[C@H]1[C@@H]2C(=O)N1CCCCCCC1"
  test-system: "Neurogenic locus notch homolog protein 3 (Homo sapiens) (UniProt Q9UM47)"
  composite z-score: 1.1
- compound: "O=C1O[C@H](c2ccccc2)[C@H](c2ccccc2)N2[C@H]1[C@@H](C(=O)NC[C@H](O)c1ccccc1)[C@]1(C(=O)Nc3ccc(C#CCCO)cc31)[C@H]2c1ccccc1OCCO"
  test-system: "Neurogenic locus notch homolog protein 3 (Homo sapiens) (UniProt Q9UM47)"
  composite z-score: 0.325
- compound: "COc1ccc(CC[C@H](O)c2cccc(OCC(=O)OC(C)(C)C)c2)cc1"
  test-system: "Neurogenic locus notch homolog protein 3 (Homo sapiens) (UniProt Q9UM47)"
  composite z-score: 1.09
- compound: "C=CC[C@]1(C(=O)OC)N=C(c2ccc(OCCCO)cc2)O[C@H]1c1ccccc1N=[N+]=[N-]"
  test-system: "Neurogenic locus notch homolog protein 3 (Homo sapiens) (UniProt Q9UM47)"
  composite z-score: 1.08
- compound: "[N-]=[N+]=NCc1ccccc1C[C@]1(C(=O)N2CCCCC2)N=C(c2ccc(OCCCO)cc2)O[C@H]1c1ccccc1"
  test-system: "Neurogenic locus notch homolog protein 3 (Homo sapiens) (UniProt Q9UM47)"
  composite z-score: 0.344
- compound: "CCCCC=C[C@@H](NC(=O)c1ccc(C(F)(F)F)cc1)c1ccccc1"
  test-system: "Neurogenic locus notch homolog protein 3 (Homo sapiens) (UniProt Q9UM47)"
  composite z-score: -0.76
- compound: "CN(C)C(=O)[C@]1(Cc2ccccc2)N=C(c2ccc(OCCCO)cc2)O[C@@H]1c1ccccc1"
  test-system: "Neurogenic locus notch homolog protein 3 (Homo sapiens) (UniProt Q9UM47)"
  composite z-score: 0.771

* * *

- measurement-notes: binders from COS7 lysate, DM2A8 probe, primary screen, torsin A project, cell lysate, small-molecule microarray, fluorescence 635/667 (AID 1065)
- conditions-used: higher = more signal, COS7 lysate expressing mutant human TOR1A
Class key for composite z-score values: bottom range = under -0.09, center range = from -0.09 up to 0.5, top range = 0.5 and over

- compound: "C=CCOC(=O)[C@H]1[C@@H]2C(=O)O[C@@H](c3ccccc3)[C@@H](c3ccccc3)N2[C@@H](c2ccc(OCCOC(=O)[C@@H]3C[C@@H]4C(=O)N[C@@H](CC(C)C)C(=O)N4[C@@H]3c3ccc(O)cc3)cc2)[C@]12C(=O)Nc1ccc(I)cc12"
  category: "center range"
- compound: "CC(C)CNC(=O)[C@@H]1c2ccccc2C(=O)N(Cc2ccccc2Cl)[C@H]1c1ccc(CO)cc1"
  category: "center range"
- compound: "COc1ccc(CCNC(=O)[C@@]2(Sc3ccc(C)cc3)CC(=O)N(C(C)C)[C@@H]2c2ccc(CO)cc2)cc1"
  category: "top range"
- compound: "COc1ccc(C#Cc2ccc3c(c2)[C@]2(C(=O)N3)[C@H](C(=O)Nc3nc4ccccc4s3)[C@H]3C(=O)O[C@H](c4ccccc4)[C@H](c4ccccc4)N3[C@@H]2c2ccc(OCCO)cc2)cc1"
  category: "top range"
- compound: "CCCC=C(CCC)[C@@H](NS(=O)(=O)c1ccc(Cl)cc1)c1ccccc1"
  category: "bottom range"
- compound: "C=C(CCCC)C(=O)CC[C@H](OC(C)=O)c1ccccc1OCCO"
  category: "center range"
- compound: "CCCC[C@@H]1C[C@H]1[C@@H](NC(=O)c1ccc(C(F)(F)F)cc1)c1ccc(C(=O)OC)cc1"
  category: "top range"
- compound: "COc1ccc([Si](C)(C)[C@H]2[C@H](CCO)O[C@@]3(C(=O)N(Cc4ccccc4)c4ccc(N(C=O)c5ccccc5)cc43)[C@@H]2C)cc1"
  category: "center range"
- compound: "CCCCC(=C=CC[C@@H](O)c1cccc(OCCO)c1)CCO"
  category: "bottom range"
- compound: "Cc1ccc(S[C@]2(C(=O)NC3CC3)CC(=O)N(Cc3cc(C(F)(F)F)cc(C(F)(F)F)c3)[C@@H]2c2ccc(CO)cc2I)cc1"
  category: "top range"
- compound: "C=CCNC(=O)[C@H]1[C@@H]2C(=O)O[C@@H](c3ccccc3)[C@@H](c3ccccc3)N2[C@@H](c2ccccc2OCCO)[C@]12C(=O)N(C(=O)OCCOC)c1ccccc12"
  category: "center range"
- compound: "[N-]=[N+]=NCc1ccccc1C[C@]1(C(=O)N2CCOCC2)N=C(c2ccc(OCCCO)cc2)O[C@H]1c1ccccc1CN=[N+]=[N-]"
  category: "top range"
- compound: "COCCCNC(=O)[C@@H]1c2ccccc2C(=O)N(C2CCCCC2)[C@H]1c1ccc(CO)cc1"
  category: "bottom range"
- compound: "CCCCN1CC=CC23O[C@@H]4/C=C\\CCC(C)OC(=O)C4[C@H]2C(=O)N(C(C)CO)[C@@H]3C1=O (some centres undefined)"
  category: "bottom range"

* * *

- test-system: Fibroblast growth factor 2 (Homo sapiens)
- measurement-notes: FGF2 binders on small-molecule microarrays, primary screen, biochemical, small-molecule microarray, 635/667 nm fluorescence (AID 1133)
- conditions-used: small-molecule microarray binding, FGF2, fluorescence 635/667; higher = more signal
Outcome label depends on composite z-score relative to 1: at/above gives true, below gives false.

- molecule: "CN1C=C(C(=O)OCCS(C)(=O)=O)C(C(=O)OCCS(C)(=O)=O)=CC(CCCO)=CC1c1ccc(CN2CCCC2)cc1 (stereo unspecified)"
  category: "false"
- molecule: "C[C@H]1C2[C@H](Cc3ccccc3)NC(=O)[C@]23C(=O)NCC(=O)N2CCC[C@H]2C(=O)NC/C=C\\C/C=C/C3[C@@H]2O[C@]12C (stereo partly specified)"
  category: "true"
- molecule: "COc1ccc([Si](C)(C)[C@@H]2[C@@H](CCO)O[C@]3(C(=O)N(Cc4ccccc4)c4ccc(N5C(=O)c6ccccc6Oc6ccccc65)cc43)[C@H]2C)cc1"
  category: "false"
- molecule: "C[N+](C)(C)CCCCCCNC(=O)[C@@H]1C[C@@H]2C(=O)N[C@@H](Cc3ccccc3)C(=O)N2[C@@H]1c1ccc(O)cc1"
  category: "true"
- molecule: "CCCC[C@@H](O)C1=C(COC)Cn2c(=O)n(-c3ccccc3)c(=O)n2[C@H]1CO"
  category: "false"
- molecule: "CC(C)(C)OC(=O)CC[C@]1(C(=O)N2CCOCC2)N=C(c2ccc(OCCCO)cc2)O[C@H]1c1ccccc1CN=[N+]=[N-]"
  category: "true"
